Just for reference, patent US20030086911A1 is where these values come from.

Tested on: BALB/c 3T3 neo-only transfectants (18neo)
experimentSummary: 51Cr-release CTL assay with T1272-specific effectors on peptide-sensitized fibroblast targets
Assay type: cell-based, BALB/c mice
measurementParameters: 1.0 μM peptide on 18neo targets; short-term T1272-specific BALB/c CTL line (3 weeks in culture); E/T 40:1
observedProperty: % specific 51Cr release, CTL line (%)
Express it in %; write the number only.

Reported % specific 51Cr release, CTL line for ALNKMFYQLAKT [Peptide T12] was −9.1

----------
System: BALB/c 3T3 neo-only transfectants (18neo)
experimentSummary: 51Cr-release CTL assay with T1272-specific effectors on peptide-sensitized fibroblast targets
Assay type: cell-based, BALB/c mice
measurementParameters: 1.0 μM peptide on 18neo targets; short-term T1272-specific BALB/c CTL line (3 weeks in culture); E/T 40:1
observedProperty: % specific 51Cr release, CTL line

Example entries begin here.
- KMFYQLAKTCPVQL [Peptide L14, C-terminal 14 residues of the T1272 peptide]: 22.1%
- TYSPALNKMFYQLAKTCPVQL [Peptide T1272]: 24.7%
- TYSPALNKMFYQL [Peptide L13]: −8.9%

Shifting focus to the sequence that follows.
Bench note, BALB/c 3T3 neo-only transfectants (18neo): entry FYQLAKTCPV [Peptide V10] , its % specific 51Cr release, CTL line = 53.7%
